B1: PHTF1 (parent)
chain: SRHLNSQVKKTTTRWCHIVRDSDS

Variants of: B1
Assay: protein stability index of a GFP-peptide fusion (GPS, HEK-293T) (PSI 1-6); higher = more stable;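 also: lentivirally expressed fusions sorted by FACS into six bins by GFP to DsRed ratio, PSI derived from sequencing read proportions per bin multiplied by bin number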
Details: c terminus: a fixed tail appended
Kindly return YES if reported protein stability index is no lower than 2; return NO if it is lower.

I18M    YES

// inclusive: protein stability index at least 2? input: R14S
NO

// inclusive: protein stability index at least 2? input: D21G
NO

// inclusive: protein stability index at least 2? input: D23C
NO

// inclusive: protein stability index at least 2? input: N5E
NO

// inclusive: protein stability index at least 2? input: V19F
NO

// inclusive: protein stability index at least 2? input: V8Y
NO

// inclusive: protein stability index at least 2? input: R14D
YES

// inclusive: protein stability index at least 2? input: D21Y
NO

From: the supplement of paper PMC10567573
